Recorded IC50, one value per entry.
Target: Neuropeptide Y receptor type 2 (Rattus norvegicus, UniProt Q9ERC0)
Sequence (Q9ERC0 whole entry): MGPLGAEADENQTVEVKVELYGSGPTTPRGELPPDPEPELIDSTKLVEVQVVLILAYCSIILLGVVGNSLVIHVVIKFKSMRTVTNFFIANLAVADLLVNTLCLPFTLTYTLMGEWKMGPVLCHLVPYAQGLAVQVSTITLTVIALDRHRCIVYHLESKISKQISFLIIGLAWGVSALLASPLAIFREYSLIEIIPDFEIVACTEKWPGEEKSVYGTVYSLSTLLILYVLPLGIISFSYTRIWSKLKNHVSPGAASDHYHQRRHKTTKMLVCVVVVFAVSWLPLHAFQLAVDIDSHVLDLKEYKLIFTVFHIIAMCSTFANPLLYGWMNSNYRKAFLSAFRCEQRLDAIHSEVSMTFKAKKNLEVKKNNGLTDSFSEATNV
Assay: Antisecretory potency, affinity for intestinal PYY of rat jejunum by using short circuit current (SCC) method.
Format: tissue-based
Where a SMILES comes first, the peptide text is derived from it. The star is where a group is joined. X2 = N=C(N)NCCC[C@@H](CN[C@@H](CCC(N)=O)C(=O)N[C@@H](CCCNC(=N)N)C(=O)N[C@@H](Cc1ccc(O)cc1)C(N)=O)N*

- Compound: "CC(=O)N[C@@H](C)C(=O)N[C@@H](CO)C(=O)N[C@@H](CC(C)C)C(=O)N[C@@H](CCCNC(=N)N)C(=O)N[C@@H](Cc1cnc[nH]1)C(=O)N[C@@H](Cc1ccc(O)cc1)C(=O)N[C@@H](CC(C)C)C(=O)N[C@@H](CC(N)=O)C(=O)N[C@@H](CC(C)C)C(=O)N[C@H](C(=O)N[C@H](C(=O)N[C@@H](CCCNC(=N)N)CN[C@@H](CCC(N)=O)C(=O)N[C@@H](CCCNC(=N)N)C(=O)N[C@@H](Cc1ccc(O)cc1)C(N)=O)[C@@H](C)O)C(C)C (Ac-ASLRHYLNLVT-X2)"
  Assayed system: "Neuropeptide Y receptor type 2 (Rattus norvegicus, UniProt Q9ERC0)"
  IC50: "> 100 nM"
- Compound: "CC(=O)N[C@@H](C)C(=O)N[C@@H](CO)C(=O)N[C@@H](CC(C)C)C(=O)N[C@@H](CCCN=C(N)N)C(=O)N[C@@H](Cc1c[nH]cn1)C(=O)N[C@H](CN[C@@H](CC(C)C)C(=O)N[C@@H](CC(N)=O)C(=O)N[C@@H](CC(C)C)C(=O)N[C@H](C(=O)N[C@H](C(=O)N[C@@H](CCCN=C(N)N)C(=O)N[C@@H](CCC(N)=O)C(=O)N[C@@H](CCCN=C(N)N)C(=O)N[C@@H](Cc1ccc(O)cc1)C(N)=O)[C@@H](C)O)C(C)C)Cc1ccc(O)cc1"
  Assayed system: "Neuropeptide Y receptor type 2 (Rattus norvegicus, UniProt Q9ERC0)"
  IC50: "> 100 nM"
- Compound: "CC(=O)N[C@@H](C)C(=O)N[C@@H](CO)C(=O)N[C@@H](CC(C)C)C(=O)N[C@@H](CCCN=C(N)N)C(=O)N[C@@H](Cc1c[nH]cn1)C(=O)N[C@@H](Cc1ccc(O)cc1)C(=O)N[C@@H](CC(C)C)C(=O)N[C@@H](CC(N)=O)C(=O)N[C@H](Cc1c[nH]c2ccccc12)C(=O)N[C@H](C(=O)N[C@H](C(=O)N[C@@H](CCCN=C(N)N)C(=O)N[C@@H](CCC(N)=O)C(=O)N[C@@H](CCCN=C(N)N)C(=O)N[C@@H](Cc1ccc(O)cc1)C(N)=O)[C@@H](C)O)C(C)C"
  Assayed system: "Neuropeptide Y receptor type 2 (Rattus norvegicus, UniProt Q9ERC0)"
  IC50: "> 100 nM"
